# Test system: EMT-6 tumors
# Test protocol: Biodistribution of 18F-labeled ligands in mice bearing EMT-6 tumors
# Type: in vivo, female Balb/c mice
# Settings: 30 min after i.v. injection
# Experimental: This example illustrates in vivo evaluation of compounds of the present teachings. All animal experiments were conducted in compliance with the Guidelines for the Care and Use of Research Animals established by Washington University's Animal Studies Committee. […] After counting, the percentage of the injected dose per gram of tissue (%ID/g) was calculated. The tumor/organ ratios were calculated by dividing the %ID/g of the tumor by the %ID/g of each organ.
Measured endpoint: Biodistribution: lung (%ID/g)
The figure you give is taken to be in %ID/g; do not add the unit.

Observe how each entry below is paired with its result.
{"columns": ["Compound", "Endpoint result"],
 "data": [
  ["COc1cc2c(cc1OC)CN(CCCCNC(=O)c1cc(Br)ccc1OCC[18F])CC2 [[^18F]3d]", 3.08],
  ["COc1cc2c(cc1OC)CN(CCCCNC(=O)c1cc(I)ccc1OCC[18F])CC2 [[^18F]3e]", 4.07],
  ["COc1cc2c(cc1OC)CN(CCCCNC(=O)c1cc(C)ccc1OCC[18F])CC2 [[^18F]3c]", 2.36]
]}

Now look at this one.
Entry COc1cc2c(cc1OC)CN(CCCCNC(=O)c1cc(I)cc(OC)c1OCC[18F])CC2 [[^18F]3f] ; Biodistribution: lung = 3.75
